Biological target: hSK3 channels (Homo sapiens, UniProt Q9UGI6)
Construct: expressed in transfected cells; host or cells: HEK293
Experiment: Whole-cell patch-clamp recording of ionic current through SK channels (subtype 3) in HEK293 cells expressing hSK3
Assay type: cell-based
Conditions: baseline current at -75 mV, free Ca2+ 0.3-0.4 μM, room temperature
VALUE_KIND: The SC100 (Stimulating Concentration required for increasing the baseline current by 100%) (µM)
Kindly answer with a numeric value in µM, unit omitted.

MOLECULE	UNIT_STRING	ASSAY_VALUE
Clc1ccc(Nc2cccc(-n3cccn3)n2)c(Cl)c1 [Compound A8]	µM	0.3
Cc1cc(C)n(-c2cccc(Nc3ccc(Cl)cc3)n2)n1 [Compound A1]	µM	0.03
Cc1cc(C)n(-c2cccc(Nc3ccc(F)c(F)c3)n2)n1 [Compound C4]	µM	0.4

Challenge: Provide the reported The SC100 (Stimulating Concentration required for increasing the baseline current by 100%) (system: hSK3 channels (Homo sapiens, UniProt Q9UGI6)) for CNc1cc(-n2nc(C)cc2C)nc(Nc2ccc(Cl)cc2)c1N [Compound D1]
Response given: 0.1
